Reported apparent KD of MS2 coat protein is given for each of the following sequences.
Tested on: MS2 coat protein
assay_protocol: apparent KD of MS2 coat protein, switch OFF state (with FMN for OFF switches, without FMN for ON switches); designed switch direction (-1 OFF switch, 1 ON switch): 1; higher = weaker reporter binding
particulars: FMN input: 0 or 200 uM; Eterna round: R93 (includes R88 designs)
The reply should contain only the number, in nM.

{"residue_string": "ACUACACAUGAGGAUCACCCAUGUCAGGUCGGACUAGGAUAUUAUAAACCAGAGUAAAAAUAAGAAGGAGUAGAAA [JR_SS001_Sub309]", "apparent KD of MS2 coat protein, nM": 29.9}
{"residue_string": "GAAAAACAUGAGGAUCACCCAUGUGUAAAUAUGGAAGGAUAUACAAAGACGGAAGUCAAAGUAGAAGGUCUAAAAG [Mat - Same State 1 - Eli mod - D18]", "apparent KD of MS2 coat protein, nM": 30.3}
{"residue_string": "ACUAUACAUGAGGAUCACCCAUGUCAGGUGGGACUAGGAUAUCAAAAGCCAGAGUAAGAAUGAGAAGGAGUAGAAA [JR_SS001_Sub304]", "apparent KD of MS2 coat protein, nM": 69.3}
{"residue_string": "AAAAAACAUGAGGAUCACCCAUGUGAGAACAUGGGAGGAUAUACAAGGACGAGAGUCAAAGUAGAAGGCCUAAAAA [Garnet 65]", "apparent KD of MS2 coat protein, nM": 29.9}
{"residue_string": "GAAAAACAUGAGGAUCACCCAUGUAGAAAUAUGGGAGGAUAUACAAUGACGAAAGUCAAUGUAGAAGGCCUGAUAG [JL S1 M-MoE mod 4]", "apparent KD of MS2 coat protein, nM": 74.2}

API: the following record is the query input.
-- ask Give the reported apparent KD of MS2 coat protein for AGGAAACAUGAGGAUCACCCAUGUAAAAAUAUGGGAGGAUAUACAAAGACGAAAGUGAGAGUAGAAGGCCUAAAAG [Garnet 18] (system: MS2 coat protein).
-- reply 124

* * *

Reported apparent KD of K4 kissing-loop reporter is given for each of the following sequences.
Tested on: K4 kissing-loop RNA reporter;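 also: bound reporter read as fluorescence of individual clusters on recovered sequencing chips by microscopy, with normalized cluster intensities fitted with a binding model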
assay_protocol: apparent KD of K4 kissing-loop reporter; higher = weaker reporter binding
particulars: Eterna round: R107; input ligand: tryptophan 2.4 mM
The reply should contain only the number, in nM.

Solved cases below.
{"residue_string": "AGAACUGUCUGAGAUACCAGCCAGGAAGUGAUGUUUCCAGCUCCACGAAAGUGGAGCCAUGGCCCUUGGCAGCUCAGACAGUUCA [Omei KL Theo B SS A v5]", "unit_label": "nM", "apparent KD of K4 kissing-loop reporter": 154}
{"residue_string": "AUUGUACAGGGAAGGAGCGUCGACCAGUGAUGUUGGAGUUAAAUACCAGUGAUGUUGGUUAGGCAGGUAGGUCGCCCUCAAGUAG [#10 K4 Arginine B Exclusion]", "unit_label": "nM", "apparent KD of K4 kissing-loop reporter": 118}
{"residue_string": "GGAGAGGUCUUGUUUGGAUGUGUUUAAUGGCGAGGACCGGUACGGCCGCCACUCGGGUGAUGUUAGUGAUGUUGAUGUAGUGAUG [wzwmullin]", "unit_label": "nM", "apparent KD of K4 kissing-loop reporter": 89.5}
{"residue_string": "AAAUAAAGCAGUCACCCAGUGAUGUUGGAAGGAGCGUGCGAAAGCACAGGUAGGUCGCCGAUAGGACAAAGUCCAAGUGGCUGCA [#SwitchBubble 30 #K4Early]", "unit_label": "nM", "apparent KD of K4 kissing-loop reporter": 318}

API: the following record is the query input.
-- ask Can you look up the measured apparent KD of K4 kissing-loop reporter of ACACUUACACAUGAUACCAGAAUUCUACCGUAAAUAGUAAGUGAUGUUUGCUAACGGCUUUUCCCUUGGCAGCAUGAUCGGUAUU [theeternabot_sameState_KL_Theo_B_43] for me?
-- reply 149
